conditions: buffer; pH 7.4; 6.0 h; 150.0 µM
Endpoint Name: solubility kinetic

> print(dat)
                                    compound       endpoint.name  measured.result
 1  CCN1CCN(CCCNC(=O)c2ccc3c(c2)sc2nc(-c4ccc(OC)cc4)cn23)CC1  solubility kinetic       > 71 µg/mL
 2  COc1ccc(C)cc1NS(=O)(=O)c1ccc(-c2cnc(C3CC3)o2)cc1  solubility kinetic        < 1 µg/mL
 3  O=C(Nc1ccc(N2CCC(N3CCCCC3)CC2)c(C(=O)O)c1)c1ccc(Br)cc1  solubility kinetic         34 µg/mL
 4  Cc1ccc(C(=O)Nc2ccc(CN3CCN(C)CC3)c(C(F)(F)F)c2)cc1C#Cc1cnc2cccnn12  solubility kinetic        < 1 µg/mL
 5  Cc1ccc(C)c(CN2CCC(CNC(=O)Nc3ccc(Br)cc3F)CC2)c1  solubility kinetic       27.9 µg/mL
 6  CCn1nc(C2CCN(C(=O)CCO)CC2)nc1-c1cnc(N)c(-c2nnc(C(C)(C)C)o2)n1  solubility kinetic       > 69 µg/mL
 7         O=C(NC1CC1)c1ccc(CSCc2ccccc2Cl)o1  solubility kinetic       > 47 µg/mL
 8  NC(=O)C1CCN(c2ncnc(-c3ccc4c(c3)OCCCO4)n2)CC1  solubility kinetic       > 52 µg/mL
 9  COC(=O)CNC(=O)c1nc(-c2ccc(Cl)nc2)c2cnccn12  solubility kinetic       > 61 µg/mL
10  N#Cc1cnccc1-c1nc(Nc2ccc(F)c(F)c2)c2ccccc2n1  solubility kinetic        < 1 µg/mL

###

Listed below: solubility kinetic values for each entry.
conditions: buffer; pH 7.4; 6.0 h; 150.0 µM
Endpoint Name: solubility kinetic

> print(dat)
                                    molecule  measured.result
 1  O=C(NC1CCCc2c1cnn2-c1ccc(F)cc1F)c1ccccc1 (stereo not given)       4.29 µg/mL
 2  CC(C)CCNC(=O)[C@H](CC(C)C)NC(=O)[C@H]1O[C@@H]1C(=O)O         33 µg/mL
 3  COc1ccnc(NC(=S)N2CCN(c3cc(C(F)(F)F)cc(C(F)(F)F)c3)CC2)c1       2.88 µg/mL
 4  Cn1cc2c3c(cccc31)CN(C(=O)c1ccc(F)c(Cl)c1)CC2        < 1 µg/mL
 5      CCn1c(C(=O)NCCc2ccc(OC)cc2)cc2sccc21       2.08 µg/mL
 6  O=C(/C=C/c1cccnc1)NCCCCC1CCN(C(=O)c2ccccc2)CC1       > 58 µg/mL
 7  CCOC(=O)c1nc(Nc2ccc(N3CCC(C)CC3)cc2)c2ccccc2n1       2.18 µg/mL
 8  COc1cccc(CNc2ccc(S(=O)(=O)Nc3nc(C)cs3)cc2)c1O       42.7 µg/mL
 9         CC(C)Nc1oc(-c2cccc3ccccc23)nc1C#N        < 1 µg/mL
10  COc1ccc(NC(=O)c2[nH]c(C)cc2C)cc1S(=O)(=O)Nc1ccc(Br)cc1        < 1 µg/mL

###

settings: buffer; pH 7.4; 6.0 h; 150.0 µM
Hi all, reminder that labels come from solubility kinetic, split as low interval: < 6 µg/mL; middle interval: ≥ 6 µg/mL and < 20 µg/mL; high interval: ≥ 20 µg/mL

> print(dat)
                                    compound  class.assignment
 1             O=C1Cc2cc(C(=O)c3ccco3)ccc2N1     high interval
 2  Cn1nnnc1Sc1ncnc2scc(-c3cccc(S(C)(=O)=O)c3)c12     high interval
 3  O=S(=O)(c1ccccc1)c1nc(-c2ccc(F)cc2)oc1N1CCCCCC1      low interval
 4  O=C(NC(c1ccccc1)c1cc(Cl)c2cccnc2c1O)c1cccnc1 (stereo not given)      low interval
 5  C[S+](=O)([O-])c1ccc(-c2nc(C(=O)N3CCOCC3)n3ccccc23)cc1     high interval
 6  O=C(NCCN1CCOCC1)C1CC(=O)N(c2n[nH]c3cc(Br)ccc23)C1 (stereo not given)     high interval
 7  CC(C)(C)c1ccc(-n2cnc3cc(C(=O)N4CCCCC4)ccc32)cc1      low interval
 8  COc1ccc(-c2cc(-c3cccc4[nH]ncc34)cn3cncc23)cn1      low interval
 9  CC(=O)c1c(C)[nH]c(C(=O)Nc2ccc(C)c(S(=O)(=O)Nc3ccc(Br)cc3)c2)c1C      low interval
10    Fc1ccc(Nc2nc(C3=CCNCC3)nc3ccccc23)cc1F     high interval
11  Cn1c(=O)c2c(-c3ccc(Cl)cc3)n(CCc3ccccc3)cc2n(C)c1=O      low interval
12  COc1ncc(-c2ccc3c(Nc4cc(Oc5cc(F)cc(F)c5)cc(C(=O)O)c4)c(S(=O)(=O)NC4CC4)cnc3c2)c(OC)n1     high interval
13  COc1ccc(-n2nc(C3CCN([S+](=O)([O-])c4cccc(C(F)(F)F)c4)CC3)[nH]c2=O)cc1      low interval
14  CC(=O)N1CCc2c(sc3c2c(=O)n(-c2ccccc2)c(=O)n3Cc2cccc(C(F)(F)F)c2)C1   middle interval
15  COCCCOc1ccnc(CS(=O)c2nc3ccccc3[n-]2)c1C (stereo not given)   middle interval
16  CC(C)(C)c1ccc(C(=O)Nc2ccc3c(c2)CCCN3C(=O)c2cccs2)cc1      low interval
17                 Nc1c(-c2ccccc2)cc[nH]c1=O   middle interval
18  CC(C)(C)OC(=O)N[C@@H](Cc1ccc(OS(=O)(=O)c2cccc3cnccc23)cc1)C(=O)N1CCCN(C(=O)OC(C)(C)C)CC1      low interval
19  O=C1Nc2ccccc2/C1=C\c1ccc([N+](=O)[O-])cc1      low interval
20  Cc1cccc2nc(NC3=NC(c4[nH]ncc4Cl)C4=C(CCCC4=O)N3)oc12 (stereo not given)      low interval

###

Listed below: solubility kinetic values for each entry.
settings: buffer; pH 7.4; 6.0 h; 150.0 µM
Endpoint Name: solubility kinetic (µg/mL)

> print(dat)
                                    compound  rel  measured.result
 1  CC(=O)Nc1ccc(C(=O)Nc2ccc3c(c2)N(C2CCCC2)C(=O)c2ccccc2S3)cc1    <                1
 2   NC(=O)C1CCN(c2nc(-c3cc4ccccc4o3)cs2)CC1    >               48
 3     NC(=O)C1CCN(c2ncc(-c3cccc(F)c3)s2)CC1    =             17.7
 4         CNc1oc(-c2cccc3ccccc23)nc1C(=O)OC    <                1
 5  O=S(=O)(Nc1cccc2ccccc12)c1ccc(NCc2cccc(Cl)c2O)cc1    <                1
 6  Cc1noc(C)c1-c1ccc2ncnc(NC(C)c3ccccc3)c2c1 (stereo unspecified)    =             12.6
 7  CC(C)(C)C(=O)N1CCN(c2nccc(Nc3ccccc3Cl)n2)CC1    =             26.3
 8  CCc1cccc(NC(=O)CSc2nc3ccccc3nc2N2CCCCC2)c1    <                1
 9  Cc1ccc(S(=O)(=O)Nc2ccccc2C(=O)Nc2ncc(-c3ccccc3)s2)cc1    <                1
10  COC(=O)CNC(=O)c1nc(-c2ccc([S+](C)(=O)[O-])cc2)c2ccccn12    =             2.27
11  Nc1nc2c(s1)C(c1ccccc1)CC(=O)N2 (stereo unspecified)    =               26

###

conditions: buffer; pH 7.4; 6.0 h; 150.0 µM
Endpoint Name: solubility kinetic (µg/mL)

> print(dat)
                                   compound  measure.unit  rel  measured.result
1  Cc1ccc(C(=O)N2CCc3cc(-c4nc(NC(=O)Cc5ccc6c(c5)OCO6)sc4C)ccc32)cc1         µg/mL    <                1
2  CC(C)Oc1ccc(-c2ccc(=O)n(CC(=O)NCCc3ccccc3)n2)cc1         µg/mL    =             16.8
3  CCN(CC)[S+](=O)([O-])c1cc(NC(=O)c2[nH]c(C)c(C(C)=O)c2C)ccc1OC         µg/mL    =             18.1
4  Nc1cc(-c2nc(Nc3ccc(F)c(F)c3)c3ccccc3n2)ccn1         µg/mL    <                1
5  CCOC(=O)N1CCN(Cc2nc3cc(NC(=O)c4ccc(OC)cc4)ccc3n2C(C)C)CC1         µg/mL    =             14.7
6  Cc1ccc(OCCn2c(CCNC(=O)N3CCCCC3)nc3ccccc32)cc1         µg/mL    =             9.07
7  Cc1nn(Cc2ccc(Cl)cc2)c(C)c1NC(=O)c1cc(-c2ccc3c(c2)OCO3)on1         µg/mL    <                1
8  Cc1ccnc(NC(=S)N2CCN(c3cccc(C(F)(F)F)n3)CC2)c1         µg/mL    =             3.88
9  COc1ccc(NC(=O)C23CC4CC(CC(C4)C2)C3)cc1[S+](=O)([O-])Nc1ccc(Br)cc1         µg/mL    <                1
